Data credit: paper PMC4661106

System: MT-4 cells
ASSAY COMMENT: Endpoint cytotoxicity assay, viable cells by trypan-blue dye exclusion
Format: cell-based
EXPERIMENTAL PARAMETERS: up to 50 μM, three days, Figure 5
MEASUREMENT NAME: general cytotoxicity: tolerated by MT-4 cells

CC1=N[C@H](CC(C)C)C(=O)N(Cc2ccc(C3CCCCC3)cc2)c2cc(C(=O)O)ccc21 tolerated
CC1=N[C@H](CC(C)C)C(=O)N(Cc2ccc(-c3ccccc3)cc2)c2cc(C(=O)O)ccc21 tolerated
CCCCCCCCCCNC(=O)CN1C(=O)[C@@H](CC(C)C)N=C(C)c2ccc(C(=O)O)cc21 tolerated
